meta.source: patent US20250034139A1

Test system: Hep3B hepatocellular carcinoma cell line
Settings: number of mice with no viable tumor at necropsy, day 35; doses as Table 35
Exercise: state measured Complete Regressions for each of the compounds provided.
Give bare numbers.

These recorded examples may help you get a feel for the data.
INSERT INTO results (compound, recorded_value) VALUES
  ('CCCCCCOc1cccc(CNc2ccnc3ccccc23)c1 [Compound AC, N-[3-(Hexyloxy)benzyl]quinolin-4-amine]', 2),
  ('CCCCCCOc1cccc(CNc2ncnc3ccccc23)c1 [AK, N-[3-(Hexyloxy)benzyl]quinazolin-4-amine]', 2),
  ('CCCCCCOc1ccc(CNc2ncnc3ccccc23)cc1 [AB, N-[4-(Hexyloxy)benzyl]quinazolin-4-amine]', 2);

With those in mind, consider the next compound.
Form: compound = CNC(=O)c1cc(Oc2ccc(NC(=O)Nc3ccc(Cl)c(C(F)(F)F)c3)cc2)ccn1 [Sorafenib, sorafenib, reference compound] ; Complete Regressions = 1

---

Provide the recorded MIC50 for the entries that follow.
Tested on: Candida glabrata strains
Assay: Example N: MIC and MFC (CLSI) against Candida glabrata
Type: cell-based
Conditions: Nakaseomyces glabratus, 48 h

INSERT INTO assay_data (compound, recorded_value) VALUES
  ('CCCCCCCCCCNc1ccnc2ccccc12 [Compound AG, N-(Decyl)quinolin-4-amine]', '0.5 to 2 µg/mL');

Please state, for each entry, its recorded MIC50.
1. COc1ccc(OCCCCCCCCNc2ncnc3ccccc23)cc1 [AE]
2. CCCCCCOCCCCCCCCCCNc1ccnc2ccccc12 [Compound AL, N-[10-(Hexyloxy)decyl]quinolin-4-amine]

Found:
1. 4 to 8 µg/mL
2. 2 to 4 µg/mL

Hello, I would appreciate it if you could give MIC50 for each entry below.
1. CCCCOCCCCCCCCCCNc1ccnc2ccccc12 [AM, N-(10-Butoxydecyl)quinolin-4-amine]
2. CCCCCCOCCCCCCCCNc1ccnc2cc(Cl)ccc12 [AW]

Found:
1. 2 to 4 µg/mL
2. 8 µg/mL

---

Exercise: for every item that follows, state its recorded Oxaliplatin 100 μM: percent cell survival.
System: PC-3 prostate cancer cells
Experiment: Example T: sensitisation of PC-3 cells to doxorubicin, oxaliplatin, paclitaxel or vincristine, Wst1
Assay type: cell-based, human
Conditions: PC-3 cells; compound 1.5 μM + oxaliplatin 100 μM; 72 hours; chemotherapy agent alone normalized to 100%
One number for each entry, in %.

Look over these answered cases.
INSERT INTO results (compound, study_system, recorded_value) VALUES
  ('CCCCCCCCCCCCOCCn1cnc2cnc3ccccc3c21', 'PC-3 prostate cancer cells', 85.5),
  ('CCCCCCOCCCCCCCCn1cnc2cnc3ccccc3c21', 'PC-3 prostate cancer cells', 76.2),
  ('CCCCCCCCCCOCCCCn1cnc2cnc3ccccc3c21', 'PC-3 prostate cancer cells', 91.8);

Field: Oxaliplatin 100 μM: percent cell survival. Fill in for each record below.
1. CCCCCCOc1ccc(CNc2ccnc3ccccc23)cc1 [AA, N-[4-(Hexyloxy)benzyl]quinolin-4-amine]
2. CCCCCCOc1ccc(OCCNc2ccnc3ccccc23)cc1

Found:
[31, 146.7]

---

System: Trichophyton rubrum
Test: Example J: Trichophyton rubrum growth inhibition, scoring by eye
Assay type: cell-based
Settings: Trichophyton rubrum, 144 h; 6 days at 30° C., tested 6 to 40 μM; read-out: MIC, μM (maximum inhibition concentration, scoring by eye)
Experimental Endpoint: MIC (µM)
One number for each entry, in µM.

INSERT INTO measurements (compound, recorded_value) VALUES
  ('c1ccc(Oc2cccc(CNc3ncnc4ccccc34)c2)cc1', 18),
  ('CCCCCCOCCCCCCCCn1cnc2cnccc21', 25),
  ('CCCCCCCCn1cnc2cnc3ccccc3c21 [BP, 1-Octyl-1H-imidazo[4,5-c]quinoline]', 12);

Return reported MIC values for all items listed beneath this line.
1. Cc1ccc(OCCCCCCCCNc2ccnc3ccccc23)cc1 [BF, N-[8-(p-Tolyloxy)octyl]quinolin-4-amine]
2. Fc1cccc(OCCCCCCCCNc2ccnc3ccccc23)c1
3. CCCCCCCCCCNc1ccnc2ccccc12

Found:
18
18
18

Please go through the list and note MIC for each compound.
1. COc1ccc(OCCCCCCCCNc2ncnc3ccccc23)cc1
2. CCCCCCOCCCCCCCCNc1ccncn1 [AU, N-[8-(Hexyloxy)octyl]pyrimidin-4-amine]
3. c1ccc(OCCCCCCCCNc2ccnc3ccccc23)cc1

Found:
6
12
18

Below are 6 compounds. Give each one its MIC.
1. CCCCCCOc1ccc(CNc2ncnc3ccccc23)cc1 [AB, N-[4-(Hexyloxy)benzyl]quinazolin-4-amine]
2. CCCCCCOc1cccc(OCCCNc2ccnc3ccccc23)c1
3. CCCCCCOCCCCCCCCCCNc1ccnc2ccccc12 [Compound AL, N-[10-(Hexyloxy)decyl]quinolin-4-amine]
4. Fc1ccc(OCCCCCCCCNc2ccnc3ccccc23)cc1
5. Cc1cccc(OCCCCCCCCNc2ccnc3ccccc23)c1 [BE, N-[8-(m-Tolyloxy)octyl]quinolin-4-amine]
6. Cc1ccccc1OCCCCCCCCNc1ccnc2ccccc12 [BG, N-[8-(o-Tolyloxy)octyl]quinolin-4-amine]

Found:
[18, 18, 12, 18, 12, 12]

# MIC (compound: CCCCCCOCCCCCCCCNc1cc(C)nc2ccccc12 ) is 25

---

Test system: imiquimod-induced dermatitis
Details: mouse, in vivo
Marks after values point to notes of the source that are not given here.
Experimental Endpoint: D BW (g)

Guide cases for D BW (g), answers given:
INSERT INTO assay_data (molecule, experimental_endpoint, recorded_value) VALUES
  ('CCCCCCOc1cccc(CNc2ccnc3ccccc23)c1 [Compound AC, N-[3-(Hexyloxy)benzyl]quinolin-4-amine]', 'D BW (g)', '+0.2 g'),
  ('C[C@@H]1C[C@H]2[C@@H]3CCC4=CC(=O)C=C[C@]4(C)[C@@]3(F)[C@@H](O)C[C@]2(C)[C@@]1(O)C(=O)CO [Dexamethasone, reference compound]', 'D BW (g)', '−2.4 * g'),
  ('c1ccc(Oc2cccc(CNc3ccnc4ccccc34)c2)cc1', 'D BW (g)', '+0.4 g'),
  ('COc1ccc(OCCCCCCCCNc2ncnc3ccccc23)cc1', 'D BW (g)', '+0.4 g'),
  ('CCCCCCCCCCOc1cccc(CNc2ccnc3ccccc23)c1 [DU, N-[3-(Decyloxy)benzyl]quinolin-4-amine]', 'D BW (g)', '+0.5 g');

Item: c1ccc(Oc2cccc(CNc3ncnc4ccccc34)c2)cc1 | D BW (g): +0.1 g

---

Test system: imiquimod-induced dermatitis
Details: mouse, in vivo
Experimental Endpoint: D BW (g)
One number for each entry, in g.

INSERT INTO measurements (compound_structure, experimental_endpoint, output_unit, recorded_value) VALUES
  ('O=C(NCCCCCCCCNc1ccnc2ccccc12)c1cccnc1', 'D BW', 'g', -0.2),
  ('c1ccc(Oc2cccc(CNc3ccnc4ccccc34)c2)cc1', 'D BW', 'g', -0.4),
  ('c1ccc(Oc2cccc(Nc3ccnc4ccccc34)c2)cc1', 'D BW', 'g', -0.1);

Please turn your attention to the following entry.
response.value for c1ccc(Oc2ccc(Nc3ccnc4ccccc34)cc2)cc1 (field: D BW) = -0.2

---

Exercise: state measured Final Body Weight for each of the compounds provided.
Tested on: 4T1 mouse mammary breast cancer cells
Assay: Example O: syngeneic 4T1 breast cancer growth in Balb/C mice
Type: in vivo
Details: 4T1 in female Balb/C mice, 120 μmol/kg/day oral; final; in g (unit assumed)
Numbers only.

INSERT INTO measurements (compound, experimental_endpoint, recorded_value) VALUES
  ('CCCCCCOc1cccc(CNc2ccnc3ccccc23)c1 [Compound AC, N-[3-(Hexyloxy)benzyl]quinolin-4-amine]', 'Final Body Weight', 19.7),
  ('CCCCCCOc1ccccc1OCCCNc1ccnc2ccccc12', 'Final Body Weight', 24.4),
  ('CCCCCCOc1ccccc1OCCNc1ccnc2ccccc12', 'Final Body Weight', 24.1),
  ('CCCCOCCCCCCCCNc1ccnc2ccccc12', 'Final Body Weight', 20.6),
  ('CCCCCCOc1ccc(OCCNc2ccnc3ccccc23)cc1', 'Final Body Weight', 24.8);

The reported Final Body Weight of the compound CCCCCCOc1ccc(CNc2ccnc3ccccc23)cc1 [AA, N-[4-(Hexyloxy)benzyl]quinolin-4-amine] was 20.3

---

Test system: Rhizopus strains
Experiment: Example N: MIC and MFC (CLSI) against Rhizopus
Format: cell-based, Rhizopus spp.
Details: Rhizopus, 48 h, read-out: MIC 100%
Experimental Endpoint: MIC (µg/mL)
Answers are plain numbers, in µg/mL.

INSERT INTO assay_data (molecule, study_system, experimental_endpoint, output_unit, recorded_value) VALUES
  ('CCCCCCOCCCCCCCCCCNc1ccnc2ccccc12 [Compound AL, N-[10-(Hexyloxy)decyl]quinolin-4-amine]', 'Rhizopus strains', 'MIC', 'µg/mL', 8),
  ('CCCCCCOCCCCCCCCNc1ccnc2cc(Cl)ccc12', 'Rhizopus strains', 'MIC', 'µg/mL', 8),
  ('CCCCOCCCCCCCCCCNc1ccnc2ccccc12', 'Rhizopus strains', 'MIC', 'µg/mL', 4);

Here is another molecule to look at.
Summary: CCCCCCCCCCNc1ncnc2ccccc12 , Rhizopus strains, MIC = 2
